Test: Single dose 300 mg / 450 mg pharmacokinetic, safety and tolerability study in healthy male and female subjects
Details: female, human, plasma, po, 300 mg
Quantity Kind: concentration at 6 h (ng/mL)
Provide only the numeric value, understood in ng/mL.

The compound listed as O=C1NCC2(c3ccc(Cl)c(Cl)c3)CC12 (stereo not shown) [EB-10101] has a reported concentration at 6 h of 1870

* * *

Assay: Single dose 300 mg / 450 mg pharmacokinetic, safety and tolerability study in healthy male and female subjects
Conditions: both, human, plasma, po, 450 mg
Quantity Kind: concentration at 24 h
Output should be the measured figure followed by the unit it is expressed in.

The recorded concentration at 24 h for O=C1NCC2(c3ccc(Cl)c(Cl)c3)CC12 (stereo not shown) is 1920 ng/mL

* * *

Experiment: 2-week dog toxicity and toxicokinetic study
Assay type: in vivo
Conditions: both sexes, beagle, in vivo, oral capsule, 14 days, read-out: NOAEL for systemic toxicity
Quantity Kind: NOAEL at 14 days (mg/kg/day)
# unit: mg/kg/day | format: bare number

Reported NOAEL at 14 days ( `Clc1ccc([C@]23CNC[C@H]2C3)cc1Cl` ) = 10

* * *

Experiment: Single-dose (25 mg) food effect crossover study in 24 men (DOV 947-003)
Format: in vivo, human
Settings: male, human, in vivo, po, single oral dose 25 mg, Fasted, 24 healthy male subjects
Quantity Kind: AUC(0-t) (ng·h/mL)
Return type: number; implicit unit ng·h/mL.

AUC(0-t) in this record for `Clc1ccc([C@]23CNC[C@H]2C3)cc1Cl` : 1200

* * *

Assay: in vivo
Conditions: male, Crl:CD-1(ICR) BR, mouse, po, 150 mg/kg/day, Tmax
Quantity Kind: Tmax (h)
Report the value in h with no unit label.

# Tmax of `Clc1ccc([C@]23CNC[C@H]2C3)cc1Cl` = 1

* * *

Assay: Single dose 300 mg / 450 mg pharmacokinetic, safety and tolerability study in healthy male and female subjects
Conditions: male, human, plasma, po, 450 mg
Quantity Kind: AUC(0-t)
State the value with its unit after it.

Item: `Clc1ccc([C@]23CNC[C@H]2C3)cc1Cl` | AUC(0-t): 30500 ng·h/mL

Form: compound = O=C1NCC2(c3ccc(Cl)c(Cl)c3)CC12 (centres unmarked) ; AUC(0-t) = 46100 ng·h/mL

* * *

Test: 13-week rat toxicity and toxicokinetic study
Assay type: in vivo
Settings: male, Crl:CD(SD)IGS BR, rat, in vivo, po, 25 mg/kg/day, males, 25 mg/kg/day, Day 0
Quantity Kind: Cmax (ng/mL)
A number alone suffices; assume ng/mL.

The recorded Cmax for entry `Clc1ccc([C@]23CNC[C@H]2C3)cc1Cl` equals 2360

* * *

Test: Single dose 300 mg / 450 mg pharmacokinetic, safety and tolerability study in healthy male and female subjects
Conditions: female, human, plasma, po, 450 mg
Quantity Kind: concentration at 24 h
A complete answer gives the number and then names the unit.

The recorded concentration at 24 h for O=C1NCC2(c3ccc(Cl)c(Cl)c3)CC12 (stereo not shown) [EB-10101] is 2390 ng/mL

* * *

Test: 12-month dog toxicity and toxicokinetic study
Assay type: in vivo
Conditions: male, beagle, dog, plasma, po, 15 mg/kg/day, males, 20 (15) mg/kg/day, Day 358
Quantity Kind: Cmax (ng/mL)
// note: answer is a bare numeric in ng/mL

Data point: Clc1ccc([C@]23CNC[C@H]2C3)cc1Cl [amitifadine] ; Cmax = 4830

* * *

Assay: 13-week rat toxicity and toxicokinetic study
Format: in vivo
Details: male, Crl:CD(SD)IGS BR, rat, in vivo, po, 25 mg/kg/day, males, 25 mg/kg/day, Day 0
Protocol: In two separate experiments, toxicology and toxicokinetic studies were performed. […] Blood samples were collected on Day 0 and Day 87 of the study from up to 3 animals/gender/group. For toxicology assessment, clinical observations, body weight and food consumptions measures were noted periodically during the study. […]
Quantity Kind: Tmax (h)
Answer in h, number only, no unit symbol.

Per the records, this molecule ( `Clc1ccc([C@]23CNC[C@H]2C3)cc1Cl` ) has Tmax equal to 2

* * *

Assay: Single dose 300 mg / 450 mg pharmacokinetic, safety and tolerability study in healthy male and female subjects
Details: both, human, plasma, po, 300 mg
Quantity Kind: Cmax (ng/mL)
Report the value in ng/mL with no unit label.

compound O=C1NCC2(c3ccc(Cl)c(Cl)c3)CC12 (centres unmarked) , Cmax observed: 2030

// recorded Cmax for `Clc1ccc([C@]23CNC[C@H]2C3)cc1Cl` : 3370

* * *

Assay: Single rising oral dose (10-150 mg IR) safety, tolerance and pharmacokinetics in healthy male volunteers
Assay type: in vivo, human
Conditions: male, human, plasma, oral, 150 mg, Median; read-out: AUC0-t
Quantity Kind: AUC(0-t) (ng·h/mL)
Provide the reading as a plain figure in ng·h/mL.

Sample `Clc1ccc([C@]23CNC[C@H]2C3)cc1Cl` ; AUC(0-t) observed: 7940

* * *

Assay: Single dose 300 mg / 450 mg pharmacokinetic, safety and tolerability study in healthy male and female subjects
Details: both, human, plasma, po, 450 mg
Quantity Kind: concentration at 18 h (ng/mL)
Express your answer in ng/mL, writing the number without its unit.

Given item O=C1NCC2(c3ccc(Cl)c(Cl)c3)CC12 (stereo not shown) [EB-10101] , the value recorded as its concentration at 18 h is 2010

* * *

Assay: Single-dose (25 mg) gender study in males and females (DOV-947-005)
Format: in vivo, human
Details: male, human, in vivo; single oral dose 25 mg; Males (N = 32)
Quantity Kind: Cmax (ng/mL)
Give a bare numeral; the unit ng/mL is implied.

Record summary for `Clc1ccc([C@]23CNC[C@H]2C3)cc1Cl` : reported Cmax = 273

* * *

Assay: Single rising oral dose (10-150 mg IR) safety, tolerance and pharmacokinetics in healthy male volunteers
Assay type: in vivo, human
Conditions: human, plasma, oral, 150 mg, individual subject; read-out: AUC0-t
Quantity Kind: AUC(0-t) (ng·h/mL)
Express your answer in ng·h/mL, writing the number without its unit.

Please fill in: AUC(0-t) reported for Clc1ccc([C@]23CNC[C@H]2C3)cc1Cl [amitifadine] = 7210

* * *

Experiment: Single rising oral dose (10-150 mg IR) safety, tolerance and pharmacokinetics in healthy male volunteers
Assay type: in vivo, human
Details: male, human, plasma, oral, 50 mg, Median; read-out: t1/2 (converted)
Quantity Kind: half-life (h)
Give your result in h as a bare value.

half-life in this record for `Clc1ccc([C@]23CNC[C@H]2C3)cc1Cl` : 3.62

* * *

Test: Single dose 300 mg / 450 mg pharmacokinetic, safety and tolerability study in healthy male and female subjects
Details: male, human, plasma, po, 300 mg
Quantity Kind: MRT inf (h)
Number only, in h; omit the unit.

Sure, the documented MRT inf for Clc1ccc([C@]23CNC[C@H]2C3)cc1Cl [amitifadine] is 6.07

* * *

Assay: 2-week rat toxicology and toxicokinetic study
Type: in vivo
Conditions: male, Crl:CD (SD)IGS BR, rat, in vivo, po, 40 mg/kg/day, males, 40 mg/kg/day, Day 0; read-out: AUC0-24
Quantity Kind: AUC(0-t)
# answer = value followed by unit

Measured AUC(0-t) of Clc1ccc([C@]23CNC[C@H]2C3)cc1Cl [amitifadine] : 34.8 µg·h/mL

* * *

Experiment: 12-month dog toxicity and toxicokinetic study
Type: in vivo
Conditions: male, beagle, dog, plasma, po, 20 mg/kg/day, males, 20 (15) mg/kg/day, Day 0; read-out: AUC0-24
Quantity Kind: AUC(0-t) (ng·h/mL)
Return type: number; implicit unit ng·h/mL.

Reported AUC(0-t) of `Clc1ccc([C@]23CNC[C@H]2C3)cc1Cl` : 29600

* * *

Assay: Single-dose intravenous rat toxicology study
Settings: Crl:CD(SD)IGS BR, in vivo, female rats
Method: Clinical observations, body weights, and food consumption were noted periodically. All animals were euthanized following a minimum 13-day non-dosing (recovery) period. Clinical pathology evaluations (hematology and serum chemistry) were performed on all rats at the time of necropsy and selected organs were weighed. No microscopic examinations were performed.
Quantity Kind: NOAEL at 13 days (mg/kg)
Could you give me the number in mg/kg? Just the number is fine.

// NOAEL at 13 days value for `Clc1ccc([C@]23CNC[C@H]2C3)cc1Cl` : 5

* * *

Assay: Single dose 300 mg / 450 mg pharmacokinetic, safety and tolerability study in healthy male and female subjects
Settings: both, human, plasma, po, 450 mg
Quantity Kind: concentration at 2 h (ng/mL)
Reply with just the number (in ng/mL).

The compound listed as O=C1NCC2(c3ccc(Cl)c(Cl)c3)CC12 (stereo not shown) [EB-10101] has a reported concentration at 2 h of 1330

* * *

Assay: Single dose 300 mg / 450 mg pharmacokinetic, safety and tolerability study in healthy male and female subjects
Details: male, human, plasma, po, 450 mg
Quantity Kind: concentration at 0 h (ng/mL)
// units = ng/mL; emit number, no label

The molecule listed as O=C1NCC2(c3ccc(Cl)c(Cl)c3)CC12 (stereo not shown) [EB-10101] shows concentration at 0 h equal to 0
